# ASSAY: cytotoxicity in Sufu-KO-LIGHT cells, confirmation, cytotoxicity control for Gli-SUFU antagonist project, cell-based, ATP luminescence, single concentration (AID 651994);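 also: cells exposed to compound overnight for roughly 16 to 18 hours; plate controls were DMSO wells with cells for no effect and medium without cells for full effect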
# PARTICULARS: at 5 µM
Screen size: about 2,500 compounds; about 790 (32%) were called active.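 The calls were made as follows: active = mean cytotoxicity at 5 µM above about 25% (limit read from the data); inactive = the rest.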 Only a sample is shown.
Output constraint: value belongs to 1.0 (active), 0.0 (inactive)

Field: outcome | Entry: `O=C1/C(=C/c2ccc(F)cc2)SC(=S)N1NS(=O)(=O)c1ccccc1`
0.0

Which outcome was assigned to `COc1ccccc1CNC(=O)C1CCN(c2nc3ccccc3o2)CC1` in this test?
0.0

Record lookup: outcome of this test for `CC(C)Oc1ccc(CN2CCC(n3nccc3NC(=O)c3cccnc3)CC2)cc1` ?
0.0

***
// outcome(item) with item = `CNc1nnc(-c2ccco2)s1`
0.0

Fill in: this test's call for `O=C1C=C(c2ccnc3cc(Cl)ccc23)C[C@@H](c2ccc3c(c2)OCO3)C1` is ___
1.0

Hello, I am checking results. What call was entered for CN1C(CC(=O)Nc2ccc(Br)cc2)c2ccccc2CC1(C)C (stereo not drawn) ?
0.0

Call for entry CCC1CCCCN1CCCNC(=O)Cn1nc(-c2ccccc2)ccc1=O (stereo not drawn) :
0.0

Record lookup: outcome of this test for `COc1ccc2nc(SCC(=O)Nc3c(C)cc(C)cc3C)[nH]c2c1` ?
0.0

Recorded call for CCC(Cc1ccccc1)NC(=O)C1CCCCC1 (stereo not drawn) ?
0.0

Per the records of this test, what outcome belongs to `COc1cccc2cc(C(N)=O)/c(=N\NC(=O)c3ccccc3)oc12` ?
0.0

Recorded test outcome, item `Brc1c(CSc2nncc3ccccc23)nc2ccccn12`
0.0
